Recorded values, source patent US11208387B2.

System: Klebsiella pneumoniae ATCC 700603
Method summary: Serum MIC, broth micro-dilution
Format: cell-based
Applied conditions: Klebsiella pneumoniae, ATCC700603; 50% v/v mouse serum in Mueller Hinton II cation adjusted Broth, 35° C., 22 hours; Table 4; read-out: K pneumoniae 700603 Serum MIC
List of MIC values.
Reply numerically in µM, unit not repeated.

>>> readout_number("C[C@@H]1NC(=O)[C@@H](N(C)C(=O)[C@H](CNS(N)(=O)=O)NC(=O)c2c(N)nc(-c3ccc(C(C)(C)C)cc3)nc2Cl)c2cc(OC[C@H](O)CN)c(O)c(c2)-c2cc(ccc2OC[C@H](O)CN)C[C@@H](C(=O)O)NC1=O")
0.5
>>> readout_number("CCC(C)(C)c1ccc(-c2nc(C)c(C(=O)N[C@@H](CNS(N)(=O)=O)C(=O)N(C)[C@@H]3C(=O)N[C@@H](C)C(=O)N[C@H](C(=O)O)Cc4ccc(OC[C@H](O)CN)c(c4)-c4cc3cc(OC[C@H](O)CN)c4O)c(N)n2)c(F)c1")
1
>>> readout_number("Cc1nc(-c2ccc(OCCC(C)(C)C)cc2)ncc1C(=O)N[C@@H](CCN)C(=O)N(C)[C@@H]1C(=O)N[C@@H](C)C(=O)N[C@H](C(=O)O)Cc2ccc(OC[C@H](O)CN)c(c2)-c2cc1cc(OC[C@H](O)CN)c2O")
0.25

**Q:** Given the entry `C[C@@H]1NC(=O)[C@@H](N(C)C(=O)[C@H](CNS(N)(=O)=O)NC(=O)c2cnn(-c3ccc(OC4CCCCC4)cc3)c(=O)c2)c2cc(OC[C@H](O)CN)c(O)c(c2)-c2cc(ccc2OC[C@H](O)CN)C[C@@H](C(=O)O)NC1=O` , what MIC was observed with Klebsiella pneumoniae ATCC 700603?
**A:** 1.5
